B1: Gamma-crystallin D, residues 90 to 170; numbered along this chain, P07320 (parent)
chain: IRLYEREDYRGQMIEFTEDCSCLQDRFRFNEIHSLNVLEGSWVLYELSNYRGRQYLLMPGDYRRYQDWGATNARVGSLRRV

- Variants of: B1
- run description: abundance fitness (aPCA) (normalised: wild type 0, dead -1); higher = more abundant; growth selection in yeast, the domain comes from the species named
- study conditions: Homo sapiens
reported metric: abundance fitness
Give bare numbers.

Past entries and their recorded results:
sequence change	recorded result
L56N	0.022
I32T	-0.037
V37I	0.091

For the 3 variants below, give their abundance fitness values.
1. N36Y
2. C22N
3. M13I

-0.086
-0.149
-0.021
